System: MDA-MB-231
Assay: Antiproliferative activity against human MDA-MB-231 cells assessed as DNA content after 72 hrs by Hoechst 33258 staining based fluorescence assay
Type: functional, cell-based
Conditions: MDA-MB-231, 72 h
Observed Property: pIC50
In simple prose, pIC50 is minus the logarithm base ten of a concentration in moles per litre.

# Molecule, pIC50
rows = [
    ("O=C(Nc1cc(C(F)(F)F)cc(C(F)(F)F)c1)c1cc(Cl)ccc1O [IMD-0354]", 6.19),
    ("O=C(Nc1cc(Cl)cc2c1[nH]c1cnccc12)c1cccnc1", 6.05),
]

Kindly consider the entry below.
Recall the recorded pIC50 for O=C(Nc1cc(C(F)(F)F)cc(C(F)(F)F)c1)c1nsnc1O with MDA-MB-231 and state it.
5.89

* * *

Target: Inhibitor of nuclear factor kappa-B kinase subunit epsilon (Homo sapiens) (UniProt Q14164)
Sequence (whole entry): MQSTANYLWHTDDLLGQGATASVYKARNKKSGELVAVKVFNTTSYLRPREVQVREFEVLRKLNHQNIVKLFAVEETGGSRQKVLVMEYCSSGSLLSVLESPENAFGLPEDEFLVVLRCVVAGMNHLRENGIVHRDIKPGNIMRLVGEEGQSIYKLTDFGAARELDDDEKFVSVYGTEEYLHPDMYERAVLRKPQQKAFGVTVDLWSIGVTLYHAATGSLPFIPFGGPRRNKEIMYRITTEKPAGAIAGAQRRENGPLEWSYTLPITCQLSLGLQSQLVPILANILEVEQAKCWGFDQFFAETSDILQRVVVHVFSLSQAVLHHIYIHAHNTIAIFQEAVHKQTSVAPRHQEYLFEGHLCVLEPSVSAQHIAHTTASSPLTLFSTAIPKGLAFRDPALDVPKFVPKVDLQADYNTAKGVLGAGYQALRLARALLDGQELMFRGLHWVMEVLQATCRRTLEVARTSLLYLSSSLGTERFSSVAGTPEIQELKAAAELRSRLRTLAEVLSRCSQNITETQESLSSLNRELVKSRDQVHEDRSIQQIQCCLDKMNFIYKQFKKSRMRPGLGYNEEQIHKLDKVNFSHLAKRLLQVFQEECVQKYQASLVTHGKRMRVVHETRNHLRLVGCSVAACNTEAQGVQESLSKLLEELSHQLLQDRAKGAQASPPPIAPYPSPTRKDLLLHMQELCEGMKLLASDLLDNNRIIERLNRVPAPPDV
Experiment: Inhibition of human IKKepsilon at 100 uM using ERLLDDRHDSGLDSMKDEE as substrate after 60 mins in presence of ATP by ADP-Glo kinase assay relative to control
Observed Property: inhibition (%)
Express your answer in %, writing the number without its unit.

// solved cases for inhibition follow
# Compound, System Name, inhibition [%]
data = [
    ("Cn1cc(C(=O)Nc2cc(C(F)(F)F)cc(C(F)(F)F)c2)c(O)n1", "Inhibitor of nuclear factor kappa-B kinase subunit epsilon (Homo sapiens) (UniProt Q14164)", 17.2),
    ("O=C(Nc1cccc(C(F)(F)F)c1)c1nonc1O", "Inhibitor of nuclear factor kappa-B kinase subunit epsilon (Homo sapiens) (UniProt Q14164)", 32.1),
    ("O=C(Nc1cc(C(F)(F)F)cc(C(F)(F)F)c1)c1cc(Cl)ccc1O", "Inhibitor of nuclear factor kappa-B kinase subunit epsilon (Homo sapiens) (UniProt Q14164)", 30.5),
    ("O=C(Nc1cc(C(F)(F)F)cc(C(F)(F)F)c1)c1nsnc1O", "Inhibitor of nuclear factor kappa-B kinase subunit epsilon (Homo sapiens) (UniProt Q14164)", 30.2),
]

Turning now to a further record.
Fill in the recorded inhibition for this compound, with Inhibitor of nuclear factor kappa-B kinase subunit epsilon (Homo sapiens) (UniProt Q14164) as test system: COc1nsnc1C(=O)Nc1cc(C(F)(F)F)cc(C(F)(F)F)c1
21.9
